# Test system: MCF7 breast
# assayMethodText: NCI-60 one-dose screen, 48 h (100 = growth as untreated, 0 = no growth, -100 = all killed)
# testContext: 10 µM unless noted
The panel holds about 83,000 compounds, 20% with a hit somewhere; the sample as a whole holds those more often.
The entries below are paired with their reported growth.
I only need the number, in %, no unit after it.

Example entries begin here.
compound: COC(=O)CC[C@@H]1O[C@@H](c2ccc(F)cc2)[C@@H](O)[C@H]1O
recordedNumber: 96
//
compound: Cc1ccc(CNc2ccc3nc(CCC(C)C)[nH]c3c2)cc1
recordedNumber: 89.2
//
compound: CCOC(=O)c1c(C)nc2ccccc2c1/C=C/c1cccs1
recordedNumber: 39.5

Enquiry: Please give the measured growth for this compound: CC1=C(C(=O)Nc2nc(-c3ccc(Cl)cc3)cs2)[C@H](c2ccc(O)cc2)NC(=O)N1
Return: 101

Enquiry: Would you kindly share the measured growth for CCN(CC)CCCOc1ccc2ncnc(Nc3ccc(Oc4cccc(C(F)(F)F)c4)c(Cl)c3)c2c1 ?
Return: -45.2

---

# Tested on: OVCAR-8 ovarian
# assayMethodText: NCI-60 one-dose screen, 48 h (100 = growth as untreated, 0 = no growth, -100 = all killed)
# testContext: 10 µM unless noted
# Procedure: Growth inhibition of the OVCAR-8 human tumor cell line is measured as a screen for anti-cancer activity. Cells are grown in 96 well plates and exposed to the test compound for 48 hours. Compounds are tested at a single concentration, which is 10^-5 M for most compounds. The reported endpoint is percent growth (GI% or GIPRCNT), where numbers from 0 - 100% represent growth inhibition, and numbers from -100% - 0 represent cell death. For example, a value of 40 represents 60% growth inhibition. […]
About 83,000 compounds went through this panel and 20% of them were active in at least one assay; those are over-represented in the sample as a whole. The source made the active and inactive calls. Rule for the calls: active = growth percent below 10; inactive = the rest.
The entries below are paired with their reported growth.

compound: COc1ccc(C(=O)c2cc3c(N)c(C(=O)Nc4ccccc4)sc3nc2C)cc1
result: 25.5% (inactive)
//
compound: CO[C@H]1CC(=O)n2c3ccccc3c3c4c(c5c6ccccc6n1c5c32)C(=O)NC4=O
result: 37.1% (inactive)
//
compound: O=C(c1c[nH]c2ccccc12)c1n[nH]c(=S)n1-c1cccc(Br)c1
result: 93.5% (inactive)
//
compound: COc1ccc(/C=C/c2c(C(=O)/C=C/c3ccccc3)c(C)nc3ccccc23)cc1
result: 0.97% (active)
//
compound: CCOC(=O)c1nn(CC(O)c2ccccc2)c(NC(=O)Nc2cccc(F)c2)c1C (stereo not drawn)
result: 91.4% (inactive)
//
compound: O=C(/C=C/c1ccc(Cl)cc1)c1cccc(OCCCOc2cccc(C(=O)/C=C/c3ccc(Cl)cc3)c2)c1
result: 99.3% (inactive)
//
compound: C=C(C)[C@@H]1CC[C@]2(C)[C@H](CC=C3[C@@H]4CC(C)(C)CC[C@]4(CO)CC[C@]32C)[C@@]1(C)CCCN
result: -85.1% (active)
//
compound: COc1cnc2c(c1)C(=O)c1c-2n(CCCCl)c(=O)c2ccncc12
result: 66.2% (inactive)
//
compound: COC(=O)c1c2c(c(C)[n+]([O-])c1C)C(=O)C(NCc1cccc(Cl)c1)=CC2=O
result: -5.76% (active)
//
compound: S=c1[nH]c(=S)c2c(-c3ccccc3)c(-c3ccccc3)oc2[nH]1
result: 110% (inactive)

Enquiry: Could you tell me which growth is on file for COc1cc(NC(=O)c2cncnc2Nc2ccc3c(ccn3Cc3ccccn3)c2)cc(OC)c1 ?
Return: 65.8% (inactive)

Enquiry: Need growth, item COc1cc(OC)cc(-c2ccc(-c3ccc(C(=N)N)o3)o2)c1
Return: 64.3% (inactive)

Enquiry: State the recorded growth for this entry: C=C1CC[C@@H]2C(C)(C)[C@@H](O)CC[C@@]2(C)[C@@H]1COc1ccc2ccc(=O)oc2c1
Return: 83.4% (inactive)

---

# System: SW-620 colon
# assayMethodText: NCI-60 one-dose screen, 48 h
# testContext: 10 µM unless noted
Compounds without any hit were thinned out: in the full panel of roughly 83,000, 20% have a hit. Calls of active or inactive are those of the source. How the source made its calls: active means growth percent below 10; inactive means the rest.
Respond only with the outcome that fits, drawn from active, inactive

Solved cases (5 shown):
compound: Cc1ccc(/C=C/C(=O)c2ccc(-n3cc(CN4CCN(c5cc6c(cc5F)c(=O)c(C(=O)O)cn6C5CC5)CC4)nn3)cc2)cc1
labelClass: inactive

compound: Oc1c(CN2CCCC2)cc(CSCc2ccccc2)c2cccnc12
labelClass: inactive

compound: C[C@H](C(=O)N(CCc1ccc(Cl)c(Cl)c1)Cc1cncs1)[C@@H]1CC[C@H](C[C@H](C)n2cc(CN3CCC(c4ccc(Cl)cc4)CC3)nn2)O1
labelClass: inactive

compound: CCCn1cnc2c(c1=N)C(c1ccc(F)cc1)c1sc3c(F)cccc3c1O2 (configuration not stated)
labelClass: inactive

compound: Cc1cccc(N2CCC(=O)NC2=S)c1
labelClass: inactive

Field: next compound
Enquiry: Any idea what this test logged for CCN(CC)c1ccc(/C=N/NC(=O)Cc2ccc(Nc3ccnc(C(F)(F)F)c3)cc2)c(O)c1 ?
Return: inactive

---

# System: HCT-15 colon
# assayMethodText: NCI-60 one-dose screen, 48 h
# testContext: 10 µM unless noted
# Procedure: Growth inhibition of the HCT-15 human tumor cell line is measured as a screen for anti-cancer activity. Cells are grown in 96 well plates and exposed to the test compound for 48 hours. Compounds are tested at a single concentration, which is 10^-5 M for most compounds. The reported endpoint is percent growth (GI% or GIPRCNT), where numbers from 0 - 100% represent growth inhibition, and numbers from -100% - 0 represent cell death. For example, a value of 40 represents 60% growth inhibition. […]
This is part of a sample that, as a whole, favours compounds with a hit. Of some 83,000 tested, about 20% had one in any assay. Activity calls are given as the source filed them. How the source made its calls: active means growth percent below 10; inactive means the rest.
Please reply with one of these outcomes: active, inactive

Take a look at these entries with their results.
molecule: COc1ccc(/C=C/C(=O)c2cc3c(N)c(C(=O)Nc4cccc(Cl)c4C)sc3nc2C)cc1
labelClass: active
//
molecule: COc1ccc(Oc2nc(Nc3ccc(N4CCOCC4)cc3)ncc2NC(=O)Nc2cc(OC)cc(OC)c2)cc1
labelClass: inactive
//
molecule: Nc1nc(N)c2c(n1)NC(c1cccc(Nc3ccnc4cc(C(F)(F)F)ccc34)c1)CC(c1ccc(Br)cc1)=N2 (centres undefined)
labelClass: inactive

Enquiry: Assay outcome for CC1=C2[C@@H](CC1)[C@]1(C)O[C@@](C3CCCCC3)(C[C@H]1OC(=O)CO)[C@H]2OC(=O)/C=C/c1ccccc1 : what was it?
Return: inactive

Enquiry: What classification did COc1ccc(C(=O)Cn2c(C(=O)c3ccc(Cl)cc3)nc3ccccc32)cc1 end up with in this test?
Return: inactive

Enquiry: Please let me know the test result on file for CN(C)CCCNC(=O)c1cncnc1Nc1ccc(OCc2cccc(F)c2)c(Cl)c1 .
Return: active

Enquiry: Please state the recorded outcome for this molecule: C#COc1cccc(Nc2ncnc3cc(NC(=O)[C@@H](C)Cl)ccc23)c1
Return: inactive

---

# System: OVCAR-4 ovarian
# assayMethodText: NCI-60 one-dose screen, 48 h (100 = growth as untreated, 0 = no growth, -100 = all killed)
# testContext: 10 µM unless noted
The panel holds about 83,000 compounds, 20% with a hit somewhere; the sample as a whole holds those more often.
observable: growth (%)
The answer is to be given in %; state only the numeric part.

Take a look at these entries with their results.
compound: CCCCCCCCCCCCCCCCCCOc1ccccc1CC(=O)NCC[N+]1(C)CCCCC1
observable: growth
unitAbbreviation: %
recordedNumber: 40.3
--
compound: COC(=O)CC[C@@H]1O[C@@H](c2ccc(F)cc2)[C@@H](O)[C@H]1O
observable: growth
unitAbbreviation: %
recordedNumber: 115
--
compound: CC1=CCC(OC(=O)C(C)(C)CC(O)(C(C)O)C(O)C2(C)C=CC(Cc3ccc(C(C)C)cc3)(C(C)C)CC2)(C(C)C)CC1 (stereo not drawn)
observable: growth
unitAbbreviation: %
recordedNumber: 102

Enquiry: Could you share which growth value was measured for CCN1CCN(C(=O)[C@]23CC[C@@H](C)[C@H](C)[C@@H]2C2=CC[C@@H]4[C@@]5(C)C/C(=C/c6cccnc6)C(=O)C(C)(C)[C@@H]5CC[C@@]4(C)[C@]2(C)CC3)CC1 ?
Return: 26.7

Enquiry: Query: growth; subject: COc1cc(-c2nc3cc(Cl)c(Cl)cc3[nH]2)ccc1OCC(=O)N=Nc1c(O)[nH]c2ccc(Cl)cc12
Return: 12.2

Enquiry: Entry under review: O=C(CN1CCCCCC1)Nc1nc2ccc(NCc3ccc(Cl)cc3)cc2s1 . Reported growth?
Return: 96.3

Enquiry: Record request: growth value, item CCO/C=N/C1=C(C#N)C(c2ccc(F)cc2)c2sc3c(F)cccc3c2O1 (stereo not drawn)
Return: 67.8

Enquiry: Reported growth, compound C=CCN1C(=O)c2cccc3c(N4CCOCC4)ccc(c23)C1=O : ____
Return: 14.4
